Target: human CLC-2 (Homo sapiens)
Sequence (P51788 2-898): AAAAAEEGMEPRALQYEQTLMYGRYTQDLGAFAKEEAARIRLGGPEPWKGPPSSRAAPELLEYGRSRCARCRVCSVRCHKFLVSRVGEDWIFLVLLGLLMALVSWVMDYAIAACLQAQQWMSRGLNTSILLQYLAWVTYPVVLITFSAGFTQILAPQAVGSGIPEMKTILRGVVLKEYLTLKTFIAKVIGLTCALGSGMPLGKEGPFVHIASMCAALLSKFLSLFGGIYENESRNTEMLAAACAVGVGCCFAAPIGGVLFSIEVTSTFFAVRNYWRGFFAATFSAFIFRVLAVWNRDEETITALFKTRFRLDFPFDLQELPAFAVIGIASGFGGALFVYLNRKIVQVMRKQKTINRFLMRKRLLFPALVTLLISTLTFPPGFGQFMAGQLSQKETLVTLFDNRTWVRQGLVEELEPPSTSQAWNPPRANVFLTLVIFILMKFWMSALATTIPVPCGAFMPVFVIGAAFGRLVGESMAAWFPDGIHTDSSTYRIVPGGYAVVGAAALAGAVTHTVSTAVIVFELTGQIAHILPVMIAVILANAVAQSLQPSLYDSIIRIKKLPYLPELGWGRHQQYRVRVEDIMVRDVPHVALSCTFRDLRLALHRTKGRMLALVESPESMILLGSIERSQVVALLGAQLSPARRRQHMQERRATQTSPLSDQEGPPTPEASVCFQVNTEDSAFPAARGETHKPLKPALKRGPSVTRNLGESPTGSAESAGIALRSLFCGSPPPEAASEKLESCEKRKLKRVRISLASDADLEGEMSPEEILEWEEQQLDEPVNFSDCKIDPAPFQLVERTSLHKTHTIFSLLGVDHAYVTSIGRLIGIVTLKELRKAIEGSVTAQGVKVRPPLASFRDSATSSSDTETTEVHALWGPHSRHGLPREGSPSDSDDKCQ
Experiment: IonWorks Barracuda automated patch clamp
Format: cell-based
Settings: two cells, CHO, -120 mV
endpoint label: % inhibition at 30 μM

Record excerpt, results attached:
CC(=O)[C@H]1CC[C@H]2[C@@H]3CCC4=CC(=O)CC[C@]4(C)[C@H]3CC[C@]12C : 29; 29%
COc1cc(C(C)=O)ccc1OCCCN1CCC(c2noc3cc(F)ccc23)CC1 : 33; 27%
Oc1c(Cl)cc(Cl)c(Cl)c1Cc1c(O)c(Cl)cc(Cl)c1Cl : 42; 40%

Recorded % inhibition at 30 μM for `O=C1Cc2cc(CCN3CCN(c4nsc5ccccc45)CC3)c(Cl)cc2N1` , please?
40; 35%
